System: P388 leukemia ip, CD2F1 mice, survival T/C
Test: NCI In Vivo Anticancer Drug Screen. Data for tumor model P388 Leukemia (intraperitoneal) in CD2F1 (CDF1) mice
Conditions: endpoint: median survival time; dose: 200.0 mg/kg/injection; schedule: Q01DX009 (ip); vehicle: saline
Inconclusive results and toxic doses are left out. How the source made its calls: active means survival T/C of 150% or more; inactive means T/C below 125% in these data. Peptide text beside a SMILES is read from it.
Outcome codes: active, inactive

> print(dat)
                                    molecule  assigned.class
 1  CC(C)C(NC(=O)C1CCCN1)C(=O)O (stereo not drawn) (H-Pro-Val-OH; configuration not given here)        inactive
 2  CCN(CC)CCCC(C)NC(=S)N/N=C(\C)c1ccccn1 (stereo not given)          active
 3        Cc1cnc(Sc2ncccn2)c([N+](=O)[O-])c1        inactive
 4                   CCCCOCN(COCCCC)c1ccccn1        inactive
 5  COC1NC(=O)N(C(C)C)C1(C)C (stereo not given)        inactive
 6  N/C(=N\O)c1ccc2oc(/C=C/c3cc4cc(/C(N)=N\O)ccc4o3)cc2c1        inactive
 7                         C1=CNc2ccccc2N=C1        inactive
 8  C1OC1CO[C@@H]1CO[C@H]2[C@@H]1OC[C@H]2OCC1CO1 (stereo not given in full)          active
 9     O=C(O)CS(=O)(=O)CCCCCS(=O)(=O)CC(=O)O        inactive
10      CCOc1ccc2nc(N=NC(C(C)=O)C(C)=O)sc2c1        inactive
11   CC(C)N1CCN(c2ccncc2S(=O)(=O)N2CCCC2)CC1        inactive
12                                  CC(=O)NO        inactive
13       NS(=O)(=O)c1cccnc1Nc1ccc(Cl)c(Cl)c1        inactive
14                                CN(C)CCC#N        inactive
15            CCCCCCN(C)C12CN3CN(CN(C3)C1)C2        inactive
16  CCOC1CN(C(=O)OC)N1C(=O)OC (stereo not given)        inactive
17                               C#CCN(C)CCO        inactive
18                 CCOC(=O)CCc1ccc2c(c1)OCO2        inactive
19  O=C(O)C1=C/C(=C(/c2ccccc2)c2cc(C(=O)O)c(O)c3ccccc23)c2ccccc2C1=O        inactive
20                C1C[O][Ge]2([O]1)[O]CC[O]2        inactive
21     CC(=O)N(c1ccccc1)c1ccccc1[N+](=O)[O-]        inactive
22  N#C/C(=C\c1c(Cl)cccc1Cl)c1nc(-c2ccc(Cl)cc2)cs1        inactive
23                      O=NNc1ccc(C(=O)O)cn1        inactive
24  Cc1ccc(S(=O)(=O)c2c(O)c3ccccc3c3nc4ccccc4nc23)cc1        inactive
25  CC1(C)NC(=S)N(c2ccccc2C(=O)O)C2=C1CN(Cc1ccccc1)CC2        inactive
